TEST SYSTEM: anti-ALFA VHH
Sequence (VHH, as listed by the source): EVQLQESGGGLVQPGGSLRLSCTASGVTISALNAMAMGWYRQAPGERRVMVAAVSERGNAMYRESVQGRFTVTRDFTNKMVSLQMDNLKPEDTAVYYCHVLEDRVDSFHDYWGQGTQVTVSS
ASSAY OVERVIEW: dose-response curve fit (log(agonist) vs. response, variable slope), FIG. 2; assay format not described
Bridge positions count the residues as written; N and C are the ends.
READOUT KIND: Top

>  <BINDER>
Ac-SRLEDELRKRLTE-NH2 (lactam 5-9; SMILES CC(=O)N[C@@H](CO)C(=O)N[C@@H](CCCNC(=N)N)C(=O)N[C@@H](CC(C)C)C(=O)N[C@@H](CCC(=O)O)C(=O)N[C@H]1CC(=O)NCCCC[C@@H](C(=O)N[C@@H](CCCNC(=N)N)C(=O)N[C@@H](CC(C)C)C(=O)N[C@H](C(=O)N[C@@H](CCC(=O)O)C(N)=O)[C@@H](C)O)NC(=O)[C@H](CCCNC(=N)N)NC(=O)[C@H](CC(C)C)NC(=O)[C@H](CCC(=O)O)NC1=O, Cyclic ALFA tag; also called SD15196) [Ac-Ser-Arg-Leu-Glu-(cyclo5)Asp-Glu-Leu-Arg-(cyclo9)Lys-Arg-Leu-Thr-Glu-NH2]

>  <VALUE>
1.43

$$$$
>  <BINDER>
Ac-SRLEEELRRRLTE-NH2 (Linear ALFA tag; also called SD15197) [Ac-Ser-Arg-Leu-Glu-Glu-Glu-Leu-Arg-Arg-Arg-Leu-Thr-Glu-NH2]

>  <VALUE>
1.39

$$$$
>  <BINDER>
Ac-SRLEEELKRRLTE-NH2 (lactam 5-8; SMILES CC(=O)N[C@@H](CO)C(=O)N[C@@H](CCCNC(=N)N)C(=O)N[C@@H](CC(C)C)C(=O)N[C@@H](CCC(=O)O)C(=O)N[C@H]1CCC(=O)NCCCC[C@@H](C(=O)N[C@@H](CCCNC(=N)N)C(=O)N[C@@H](CCCNC(=N)N)C(=O)N[C@@H](CC(C)C)C(=O)N[C@H](C(=O)N[C@@H](CCC(=O)O)C(N)=O)[C@@H](C)O)NC(=O)[C@H](CC(C)C)NC(=O)[C@H](CCC(=O)O)NC1=O, Cyclic ALFA tag; also called SD15192) [Ac-Ser-Arg-Leu-Glu-(cyclo5)Glu-Glu-Leu-(cyclo8)Lys-Arg-Arg-Leu-Thr-Glu-NH2]

>  <VALUE>
1.35

$$$$
>  <BINDER>
Ac-SRLEEELRKRLTE-NH2 (lactam 9-13; SMILES CC(=O)N[C@@H](CO)C(=O)N[C@@H](CCCNC(=N)N)C(=O)N[C@@H](CC(C)C)C(=O)N[C@@H](CCC(=O)O)C(=O)N[C@@H](CCC(=O)O)C(=O)N[C@@H](CCC(=O)O)C(=O)N[C@@H](CC(C)C)C(=O)N[C@@H](CCCNC(=N)N)C(=O)N[C@H]1CCCCNC(=O)CC[C@@H](C(N)=O)NC(=O)[C@H]([C@@H](C)O)NC(=O)[C@H](CC(C)C)NC(=O)[C@H](CCCNC(=N)N)NC1=O, Cyclic ALFA tag; also called SD15193) [Ac-Ser-Arg-Leu-Glu-Glu-Glu-Leu-Arg-(cyclo9)Lys-Arg-Leu-Thr-(cyclo13)Glu-NH2]

>  <VALUE>
1.44

$$$$
